Test: Fed state three-phase in vitro digestion of CBD (olive oil and baby food)
Assay type: in vitro ADME
Details: fed state digestion, 10 mg CBD; read-out: % recovery in pellet (P)
TEST_READOUT: recovery at 3 h, 10 mg CBD per digestion (in 0.5 g olive oil + 2 g baby food) (%)
Numbers only; they are read as %.

QUERY: What value of recovery at 3 h, 10 mg CBD per digestion (in 0.5 g olive oil + 2 g baby food) has been recorded for this entry: C=C(C)[C@@H]1CCC(C)=C[C@H]1c1c(O)cc(CCCCC)cc1O
RESULT: 90.2

* * *

Test: Fasted state three-phase in vitro digestion of CBD
Assay type: in vitro ADME
Conditions: 100 mg CBD, read-out: % recovery in pellet (P)
TEST_READOUT: recovery at 3 h, 100 mg CBD per digestion (in 1 mL water + 1 mL oral fluid) (%)
Lab book: enter the figure in %, no units written.

QUERY: Recorded recovery at 3 h, 100 mg CBD per digestion (in 1 mL water + 1 mL oral fluid) for C=C(C)[C@@H]1CCC(C)=C[C@H]1c1c(O)cc(CCCCC)cc1O , please?
RESULT: 74.1

* * *

Test: Fasted state three-phase in vitro digestion of CBD
Assay type: in vitro ADME
Settings: 10 mg CBD, read-out: % recovery in digesta (DG)
TEST_READOUT: recovery at 3 h, 10 mg CBD per digestion (in 1 mL water + 1 mL oral fluid)
Note to self: number, then unit, no commentary.

QUERY: Endpoint output: recovery at 3 h, 10 mg CBD per digestion (in 1 mL water + 1 mL oral fluid) of C=C(C)[C@@H]1CCC(C)=C[C@H]1c1c(O)cc(CCCCC)cc1O . Value?
RESULT: 73%

* * *

Assay: Fed state three-phase in vitro digestion of CBD (olive oil and baby food)
Type: in vitro ADME
Conditions: fed state digestion, 100 mg CBD; read-out: % recovery in aqueous (AQ) micellar fraction
TEST_READOUT: recovery at 3 h, 100 mg CBD per digestion (in 0.5 g olive oil + 2 g baby food) (%)
Please reply with the bare figure in % and do not write the unit itself.

QUERY: Which recovery at 3 h, 100 mg CBD per digestion (in 0.5 g olive oil + 2 g baby food) value is on record for C=C(C)[C@@H]1CCC(C)=C[C@H]1c1c(O)cc(CCCCC)cc1O [CBD, Cannabidiol] ?
RESULT: 18.6

* * *

Assay: Fed state three-phase in vitro digestion of CBD (olive oil and baby food)
Format: in vitro ADME
Settings: fed state digestion, 10 mg CBD; read-out: % recovery in aqueous (AQ) micellar fraction
TEST_READOUT: recovery at 3 h, 10 mg CBD per digestion (in 0.5 g olive oil + 2 g baby food) (%)
The reply should be a number in %, with the unit left off.

QUERY: Return reported recovery at 3 h, 10 mg CBD per digestion (in 0.5 g olive oil + 2 g baby food); argument: C=C(C)[C@@H]1CCC(C)=C[C@H]1c1c(O)cc(CCCCC)cc1O
RESULT: 12.9

* * *

Test: Fed state three-phase in vitro digestion of CBD (olive oil and baby food)
Assay type: in vitro ADME
Conditions: fed state digestion, 100 mg CBD; read-out: % recovery in pellet (P)
TEST_READOUT: recovery at 3 h, 100 mg CBD per digestion (in 0.5 g olive oil + 2 g baby food) (%)
Reply numerically in %, unit not repeated.

QUERY: Need recovery at 3 h, 100 mg CBD per digestion (in 0.5 g olive oil + 2 g baby food) of C=C(C)[C@@H]1CCC(C)=C[C@H]1c1c(O)cc(CCCCC)cc1O [CBD, Cannabidiol] , thanks.
RESULT: 87.9

* * *

Test: Fed state three-phase in vitro digestion of CBD (olive oil and baby food)
Assay type: in vitro ADME
Conditions: fed state digestion, 100 mg CBD; read-out: % recovery in digesta (DG)
TEST_READOUT: recovery at 3 h, 100 mg CBD per digestion (in 0.5 g olive oil + 2 g baby food) (%)
Express it in %; write the number only.

QUERY: What measured recovery at 3 h, 100 mg CBD per digestion (in 0.5 g olive oil + 2 g baby food) goes with C=C(C)[C@@H]1CCC(C)=C[C@H]1c1c(O)cc(CCCCC)cc1O ?
RESULT: 83.1

* * *

Assay: Fasted state three-phase in vitro digestion of CBD
Format: in vitro ADME
Details: 100 mg CBD, read-out: % recovery in digesta (DG)
TEST_READOUT: recovery at 3 h, 100 mg CBD per digestion (in 1 mL water + 1 mL oral fluid) (%)
Quick note: give the figure in %, leave out the unit.

QUERY: Looking for the measured recovery at 3 h, 100 mg CBD per digestion (in 1 mL water + 1 mL oral fluid) of C=C(C)[C@@H]1CCC(C)=C[C@H]1c1c(O)cc(CCCCC)cc1O [CBD, Cannabidiol] , can you help?
RESULT: 95.7

* * *

Assay: Fasted state three-phase in vitro digestion of CBD
Assay type: in vitro ADME
Conditions: 10 mg CBD, read-out: % recovery in aqueous (AQ) micellar fraction
TEST_READOUT: recovery at 3 h, 10 mg CBD per digestion (in 1 mL water + 1 mL oral fluid)

QUERY: Requested field: recovery at 3 h, 10 mg CBD per digestion (in 1 mL water + 1 mL oral fluid). Item: C=C(C)[C@@H]1CCC(C)=C[C@H]1c1c(O)cc(CCCCC)cc1O [CBD, Cannabidiol]
RESULT: 0.69%
